Would you kindly list pIC50 for each of these compounds?
- target: full-length beta-Catenin (Uniprot ID P35222) (Homo sapiens, UniProt P35222)
- Construct: 10 nM full-length beta-Catenin (Uniprot ID P35222)
- Sequence (P35222 1-781): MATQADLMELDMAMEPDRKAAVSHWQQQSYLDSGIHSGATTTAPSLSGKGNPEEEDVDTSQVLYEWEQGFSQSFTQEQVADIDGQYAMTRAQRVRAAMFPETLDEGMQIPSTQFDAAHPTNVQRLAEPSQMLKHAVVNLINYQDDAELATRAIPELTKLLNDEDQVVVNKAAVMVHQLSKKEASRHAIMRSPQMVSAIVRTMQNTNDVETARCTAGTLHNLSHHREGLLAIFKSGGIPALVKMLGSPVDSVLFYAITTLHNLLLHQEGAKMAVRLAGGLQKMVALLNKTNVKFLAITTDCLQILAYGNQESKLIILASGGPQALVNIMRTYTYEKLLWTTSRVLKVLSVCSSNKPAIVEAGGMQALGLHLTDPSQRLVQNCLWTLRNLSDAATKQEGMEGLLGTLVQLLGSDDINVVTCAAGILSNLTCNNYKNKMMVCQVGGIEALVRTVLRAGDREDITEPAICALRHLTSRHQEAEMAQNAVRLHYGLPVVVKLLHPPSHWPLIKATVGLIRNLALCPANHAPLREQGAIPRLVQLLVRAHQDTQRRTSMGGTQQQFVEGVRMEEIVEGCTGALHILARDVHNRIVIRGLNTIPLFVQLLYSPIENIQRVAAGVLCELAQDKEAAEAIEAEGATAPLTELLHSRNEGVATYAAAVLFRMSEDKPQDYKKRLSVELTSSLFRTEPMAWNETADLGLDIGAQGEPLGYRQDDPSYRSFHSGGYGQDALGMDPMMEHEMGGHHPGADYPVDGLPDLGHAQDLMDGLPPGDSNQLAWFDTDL
- method: Fluorescence polarization IC50 (beta-catenin / 5FAM-TCF4 10-53 competition)
- Type: binding
- conditions used: read-out: beta-Catenin FP IC50
Give bare numbers, as −log10 of the molar value.

Some solved cases for reference:
CC(=O)N1CCC[C@]12CC=CCCCC1(CCCC=CCCCOC(=O)N3CC[C@@](C(=O)N[C@@H](Cc4ccsc4)C(=O)N[C@@H](Cc4csc5ccccc45)C(N)=O)(C3)NC(=O)[C@H](CC(N)=O)NC(=O)[C@H](Cc3ccccc3)NC(=O)[C@H](C)NC(=O)[C@H](C)NC(=O)[C@H](CC(N)=O)NC(=O)[C@H](CC(=O)O)NC1=O)NC(=O)[C@H](CC(C)(C)C)NC(=O)[C@H](CC(=O)O)NC2=O (some centres unmarked) [I-857] = 7.82
CC(=O)N1CCC[C@]12CC=CCCCC1(CCCC=CCCCOC(=O)N3CC[C@@](C(=O)N[C@@H](Cc4ccsc4)C(=O)N[C@@H](Cc4csc5ccccc45)C(=O)N[C@@H](CCC(N)=O)C(N)=O)(C3)NC(=O)[C@H](CC(C)C)NC(=O)[C@H](Cc3ccccc3)NC(=O)[C@H](C)NC(=O)[C@H](C)NC(=O)[C@H](Cc3ccc(C(=O)O)cc3)NC(=O)[C@H](CC(=O)O)NC1=O)NC(=O)[C@H](CC(C)(C)C)NC(=O)[C@H](CC(=O)O)NC2=O (some centres unmarked) [I-851] = 7.80
CC(=O)N1CCC[C@]12CC=CCCCC1(CCCC=CCCCOC(=O)N3CC[C@@](C(=O)N[C@@H](Cc4ccccc4Cl)C(=O)N[C@@H](Cc4csc5ccccc45)C(=O)N[C@@H](CCC(N)=O)C(N)=O)(C3)NC(=O)[C@H](CO)NC(=O)[C@H](Cc3cccc(C(F)(F)F)c3)NC(=O)[C@H](C)NC(=O)[C@H](C)NC(=O)[C@H](CC(=O)O)NC(=O)[C@H](CC(=O)O)NC1=O)NC(=O)[C@H](CC1CCCCC1)NC(=O)[C@H](CC(=O)O)NC2=O (some centres unmarked) [I-1119] = 7.59
CC(=O)N1CCC[C@]12CC=CCCCC1(CCCC=CCCCOC(=O)N3CC[C@@](C(=O)N[C@@H](Cc4ccccc4Cl)C(=O)N[C@@H](Cc4csc5ccccc45)C(=O)N[C@@H](CCC(N)=O)C(N)=O)(C3)NC(=O)[C@H](CO)NC(=O)[C@H](Cc3ccc(C(F)(F)F)cc3)NC(=O)[C@H](C)NC(=O)[C@H](C)NC(=O)[C@H](CC(=O)O)NC(=O)[C@H](CC(=O)O)NC1=O)NC(=O)[C@H](CC1CCCCC1)NC(=O)[C@H](CC(=O)O)NC2=O (some centres unmarked) [I-1120] = 7.07

Let us move to another entry and its pIC50.
Q. Report pIC50 for COCCOCCOCCOCCC(=O)NCCCC[C@@H]1NC(=O)[C@H](C)NC(=O)[C@H](CC(=O)O)NC(=O)[C@H](CC(=O)O)NC(=O)C2(CCCC=CCCCOC(=O)N3CC[C@@](C(=O)N[C@@H](Cc4ccsc4)C(=O)N[C@@H](Cc4csc5ccccc45)C(=O)N[C@@H](CCC(N)=O)C(N)=O)(C3)NC(=O)[C@H](CC(N)=O)NC(=O)[C@H](Cc3ccccc3)NC1=O)CCCC=CC[C@]1(CCCN1C(C)=O)C(=O)N[C@@H](CC(=O)O)C(=O)N[C@@H](CC(C)(C)C)C(=O)N2 (some centres unmarked) [I-894] please.
A. 7.82
